Data credit: patent US9371374

- target_under_test: biotinylated HCV core peptide 151-171 (Peptide 3) (HCV-1)
- assay_remarks: EIA, captured mAb
Each entry below lists one item and its recorded Reactivity (OD492) value.
measurement_name: Reactivity (OD492) (OD)

{"binder": "HCV 208B-517 (antibody, V domains shown) VH: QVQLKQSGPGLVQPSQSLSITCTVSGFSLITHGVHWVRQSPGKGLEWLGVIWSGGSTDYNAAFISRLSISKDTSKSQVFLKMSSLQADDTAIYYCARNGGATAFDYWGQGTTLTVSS VL: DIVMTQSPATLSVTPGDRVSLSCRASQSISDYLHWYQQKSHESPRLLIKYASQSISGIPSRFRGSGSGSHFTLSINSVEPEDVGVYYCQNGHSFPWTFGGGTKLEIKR", "reported_result": 0.7}
{"binder": "HCV 208B-862 (antibody) chain 1: DVQLQESGPGLVKPSQSLSLTCTVTGYSITSDYAWNWIRQFPGNKLEWMGYISYSGTTVYSPSLKSRISITRDTSKNQFFLQLNSVTIEDSATYYCGGNYWGQGTLVTVSA chain 2: DVVLTQTPLSLPLSLGDQASISCRSSQTLLHSDGDTYLHWYLQKPGQSPKLLIYKLSNRFSGVPDRFSGSGSGTDFTLKISRVEAEDLGVYFCSQSTHVPYTFGGGTKLEIKR", "reported_result": 0.1}
